Molecular target: purified human HDAC6 (Homo sapiens, UniProt Q9UBN7)
Construct: purchased BPS Bioscience 5006
Sequence (Q9UBN7 whole entry): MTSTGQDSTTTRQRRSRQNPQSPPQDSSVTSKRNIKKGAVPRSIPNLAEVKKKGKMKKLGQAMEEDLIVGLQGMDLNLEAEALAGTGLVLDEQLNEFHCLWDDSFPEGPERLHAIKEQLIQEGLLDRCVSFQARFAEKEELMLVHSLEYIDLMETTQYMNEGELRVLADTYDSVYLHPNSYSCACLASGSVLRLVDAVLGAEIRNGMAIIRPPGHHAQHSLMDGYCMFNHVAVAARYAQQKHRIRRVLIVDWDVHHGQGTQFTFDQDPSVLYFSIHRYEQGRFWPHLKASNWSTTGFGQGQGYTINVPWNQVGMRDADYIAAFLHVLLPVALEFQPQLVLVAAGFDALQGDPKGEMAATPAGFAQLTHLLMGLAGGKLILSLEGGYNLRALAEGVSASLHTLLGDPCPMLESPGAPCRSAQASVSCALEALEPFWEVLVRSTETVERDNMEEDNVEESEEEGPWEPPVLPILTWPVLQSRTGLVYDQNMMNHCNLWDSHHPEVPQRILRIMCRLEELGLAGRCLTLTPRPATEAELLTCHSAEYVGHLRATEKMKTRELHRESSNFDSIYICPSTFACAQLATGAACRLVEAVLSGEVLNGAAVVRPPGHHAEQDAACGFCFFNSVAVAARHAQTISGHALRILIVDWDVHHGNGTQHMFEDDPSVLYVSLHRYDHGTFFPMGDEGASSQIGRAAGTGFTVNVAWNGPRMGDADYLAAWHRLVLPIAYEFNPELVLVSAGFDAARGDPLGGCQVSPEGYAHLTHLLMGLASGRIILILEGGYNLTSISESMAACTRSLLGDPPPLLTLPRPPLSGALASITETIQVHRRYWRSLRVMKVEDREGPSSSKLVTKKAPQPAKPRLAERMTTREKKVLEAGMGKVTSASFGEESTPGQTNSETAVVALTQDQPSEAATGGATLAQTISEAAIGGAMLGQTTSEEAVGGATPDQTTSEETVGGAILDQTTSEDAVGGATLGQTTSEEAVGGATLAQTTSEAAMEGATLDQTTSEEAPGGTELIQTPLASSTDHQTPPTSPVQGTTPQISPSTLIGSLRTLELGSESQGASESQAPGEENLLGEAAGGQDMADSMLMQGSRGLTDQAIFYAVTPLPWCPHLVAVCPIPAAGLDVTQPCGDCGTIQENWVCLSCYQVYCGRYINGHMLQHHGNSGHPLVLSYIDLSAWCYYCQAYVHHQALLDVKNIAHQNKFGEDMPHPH
Test: HDAC6 Enzyme Assay
Assay type: biochemical
Conditions: enzyme inhibition, substrate Ac-Arg-Gly-Lys(Ac)-AMC, 1 hour at 30° C.
Exercise: for every item that follows, state its recorded IC50.

Query: Consider the compound Cc1noc(C)c1S(=O)(=O)N1CCc2cc(C(=O)NO)sc2C1 . State its measured IC50.
Response: < 0.05 µM

Query: Consider the compound CC1(C)CN(C(=O)Nc2ccc(C#N)cc2)Cc2cc(C(=O)NO)sc21 . State its measured IC50.
Response: > 1 µM

Query: Consider the compound O=C(NO)c1cc2c(s1)CN(C(=O)c1ccc3ccccc3n1)CC2 . State its measured IC50.
Response: < 0.05 µM

Query: Consider the compound CC1(C)CN(C(=O)c2cc3ccccc3s2)Cc2cc(C(=O)NO)sc21 . State its measured IC50.
Response: > 1 µM

Query: Consider the compound Cc1c(C(=O)NO)sc2c1CN(C(=O)c1cccn1C)CC2 . State its measured IC50.
Response: < 0.05 µM

Query: Consider the compound O=C(NO)c1cc2c(s1)CN(C(=O)Nc1cccc(C(F)(F)F)c1)CC2 . State its measured IC50.
Response: < 0.05 µM

Query: Consider the compound Cc1cc(C)n(CC(=O)N2CCc3cc(C(=O)NO)sc3C2)n1 . State its measured IC50.
Response: 0.05 to 0.1 µM

Query: Consider the compound Cc1c(C(=O)NO)sc2c1CN(C(=O)c1ccc(Cl)cc1)CC2 . State its measured IC50.
Response: < 0.05 µM

Query: Consider the compound Cc1c(C(=O)NO)sc2c1CN(C(=O)c1cc3ccccc3s1)CC2 . State its measured IC50.
Response: < 0.05 µM
